# measurement_target: Human RNR (human M1 subunit and human M2 subunit) (Homo sapiens (Human), UniProt P23921)
# Sequence (P23921 whole entry): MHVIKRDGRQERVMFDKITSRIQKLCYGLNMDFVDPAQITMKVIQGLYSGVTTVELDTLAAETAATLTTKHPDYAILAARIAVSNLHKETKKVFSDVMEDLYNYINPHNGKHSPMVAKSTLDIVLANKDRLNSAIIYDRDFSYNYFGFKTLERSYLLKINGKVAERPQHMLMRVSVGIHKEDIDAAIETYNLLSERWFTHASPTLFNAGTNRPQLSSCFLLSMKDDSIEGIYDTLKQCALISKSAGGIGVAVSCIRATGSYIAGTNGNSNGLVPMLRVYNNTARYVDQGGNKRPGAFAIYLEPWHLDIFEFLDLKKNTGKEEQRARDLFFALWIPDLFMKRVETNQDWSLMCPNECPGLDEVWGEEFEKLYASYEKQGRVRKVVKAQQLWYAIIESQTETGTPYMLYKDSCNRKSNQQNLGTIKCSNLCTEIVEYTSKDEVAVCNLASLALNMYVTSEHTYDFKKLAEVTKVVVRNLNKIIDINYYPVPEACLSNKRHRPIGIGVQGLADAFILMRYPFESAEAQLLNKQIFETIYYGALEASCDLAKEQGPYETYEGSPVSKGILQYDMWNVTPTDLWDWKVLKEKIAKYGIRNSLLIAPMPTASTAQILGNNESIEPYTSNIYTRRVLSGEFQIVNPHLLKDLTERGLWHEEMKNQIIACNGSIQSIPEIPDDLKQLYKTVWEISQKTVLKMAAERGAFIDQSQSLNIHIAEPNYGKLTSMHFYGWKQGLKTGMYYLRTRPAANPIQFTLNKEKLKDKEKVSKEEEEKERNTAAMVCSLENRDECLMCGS
# procedure_details: Human RNR inhibition effect (formation of dCDP from CDP, HPLC)
# Type: biochemical
# measurement_parameters: human M1 and M2 proteins, 10 μM CDP, 37° C. for 30 minutes; read-out: RNR Enzyme inhibitory activity IC50
Threshold 100 nM. IC50 below it: class 1. IC50 at it or above: class 0.

Recorded results for 5 molecules are shown here.
>  <molecule>
Cc1c(Cl)ccc(F)c1[C@@H](C)[C@H](NS(=O)(=O)c1ccc(Cl)c2c1OCCC2(C)N)c1n[nH]c(=O)o1 (single isomer, unassigned) [Example 330B]

>  <class_name>
class 0

$$$$
>  <molecule>
[2H]C([2H])([2H])C1(O)CCOc2c(S(=O)(=O)N[C@H](c3n[nH]c(=O)o3)[C@H](C)c3c(F)ccc(C)c3C)ccc(Cl)c21 (single isomer, unassigned) [Example 200B]

>  <class_name>
class 1

$$$$
>  <molecule>
Cc1ccc(F)c([C@@H](C)[C@H](NS(=O)(=O)c2ccc(Cl)c3c2OCCC3(C)O)c2n[nH]c(=O)o2)c1C (single isomer, unassigned) [Example 207B]

>  <class_name>
class 1

$$$$
>  <molecule>
Cc1ccc(F)c([C@@H](C)[C@H](NS(=O)(=O)c2cccc3c2OC(C)(C)CC3O)c2n[nH]c(=O)o2)c1C (single isomer, unassigned) [Example 237A]

>  <class_name>
class 0

$$$$
>  <molecule>
C[C@H](c1c(F)ccc2ccccc12)[C@H](NS(=O)(=O)c1ccc(Cl)c2c1OCCC2O)c1n[nH]c(=O)o1 (single isomer, unassigned) [Example 234A]

>  <class_name>
class 0

$$$$

Data request: hey, is IC50 for Cc1ccc(F)c([C@@H](C)[C@H](NS(=O)(=O)c2ccc(C(F)(F)F)c3c2OCCC3O)c2n[nH]c(=O)o2)c1C (single isomer, unassigned) [Example 244B] lower than 100 nM or not?
Data returned: class 0

Data request: hey, is IC50 for Cc1ccc(F)c([C@@H](C)[C@H](NS(=O)(=O)c2ccc(Cl)c3c2OCCC3O)c2n[nH]c(=O)o2)c1C (single isomer, unassigned) [Example 235B] lower than 100 nM or not?
Data returned: class 1

Data request: hey, is IC50 for Cc1ccc(F)c([C@@H](C)[C@H](NS(=O)(=O)c2ccc(F)c3c2OCCC3O)c2n[nH]c(=O)o2)c1C (single isomer, unassigned) [Example 230A] lower than 100 nM or not?
Data returned: class 0

Data request: hey, is IC50 for Cc1c(Cl)ccc(F)c1[C@@H](C)[C@H](NS(=O)(=O)c1ccc(F)c2c1OCCC2(C)O)c1n[nH]c(=O)o1 (single isomer, unassigned) [Example 229A] lower than 100 nM or not?
Data returned: class 1

Data request: hey, is IC50 for CCc1ccc(F)c([C@@H](C)[C@H](NS(=O)(=O)c2ccc(Cl)c3c2OCCC3O)c2n[nH]c(=O)o2)c1C (single isomer, unassigned) [Example 239A] lower than 100 nM or not?
Data returned: class 0

Data request: hey, is IC50 for [2H]C([2H])([2H])C1(O)CCOc2c(S(=O)(=O)N[C@H](c3n[nH]c(=O)o3)[C@H](C)c3c(F)ccc(C)c3C)ccc(Cl)c21 (single isomer, unassigned) [Example 200A] lower than 100 nM or not?
Data returned: class 1

Data request: hey, is IC50 for Cc1c(Cl)ccc(F)c1[C@@H](C)[C@H](NS(=O)(=O)c1ccc(Cl)c2c1OCCC2O)c1n[nH]c(=O)o1 (stereo partly drawn) [Example 238A] lower than 100 nM or not?
Data returned: class 0
